All values here come from ChEMBL document CHEMBL1126942.

Tested on: Escherichia coli
method: Tested for inhibitory activity against DNA gyrase supercoiling in Escherichia coli (KL-16)
Format: functional
# key: entry, value: IC50
Numeric only. Scale: µg/mL

# example entries with known answers
[
  {
    "compound": "CN1CCN(c2c(F)cc3c(=O)c(C(=O)O)c4n5c3c2C(=O)CC5CS4)CC1.Cl (stereo not given)",
    "display_unit": "µg/mL",
    "IC50": 0.67
  },
  {
    "compound": "CN1CCN(c2c(F)cc3c(=O)c(C(=O)O)c4n5c3c2N(C)CC5CS4)CC1.Cl (stereo not given)",
    "display_unit": "µg/mL",
    "IC50": 0.53
  },
  {
    "compound": "CN1CCN(c2c(F)cc3c(=O)c(C(=O)O)c4n5c3c2SCC5CO4)CC1.Cl (stereo not given)",
    "display_unit": "µg/mL",
    "IC50": 2.61
  },
  {
    "compound": "CC1COc2c(N3CCN(C)CC3)c(F)cc3c(=O)c(C(=O)O)cn1c23 (stereo not given)",
    "display_unit": "µg/mL",
    "IC50": 0.53
  }
]

Now look at this entry.
Per the records, this compound ( CN1CCN(c2c(F)cc3c(=O)c(C(=O)O)c4n5c3c2OCC5CS4)CC1.Cl (stereo not given) ) has IC50 equal to 0.33

---

Tested on: Pseudomonas aeruginosa
method: Tested in vitro for antibacterial activity against Pseudomonas aeruginosa (IFO 3445)
Assay type: functional
assay_endpoint: MIC (µg/mL)
Numeric only. Scale: µg/mL

# example entries with known answers
[
  {
    "molecule": "CN1CCN(c2c(F)cc3c(=O)c(C(=O)O)c4n5c3c2SCC5CO4)CC1.Cl (centres undefined)",
    "assay_endpoint": "MIC",
    "value_measured": 50
  },
  {
    "molecule": "CN1CCN(c2c(F)cc3c(=O)c(C(=O)O)c4n5c3c2N(C)CC5CS4)CC1.Cl (centres undefined)",
    "assay_endpoint": "MIC",
    "value_measured": 6.25
  },
  {
    "molecule": "CN1CCN(c2c(F)cc3c(=O)c(C(=O)O)c4n5c3c2OCC5CS4)CC1.Cl (centres undefined)",
    "assay_endpoint": "MIC",
    "value_measured": 1.56
  }
]

Now look at this entry.
Per the records, this molecule ( CN1CCN(c2c(F)cc3c(=O)c(C(=O)O)c4n5c3c2C(=O)CC5CS4)CC1.Cl (centres undefined) ) has MIC equal to 6.25

---

System: Escherichia coli
method: Tested in vitro for antibacterial activity against Escherichia coli (KC-14)
Format: functional
# key: entry, value: MIC
Numeric only. Scale: µg/mL

Per the records, this molecule ( CN1CCN(c2c(F)cc3c(=O)c(C(=O)O)c4n5c3c2N(C)CC5CS4)CC1.Cl (centres undefined) ) has MIC equal to 0.78

Per the records, this molecule ( CN1CCN(c2c(F)cc3c(=O)c(C(=O)O)c4n5c3c2SCC5CO4)CC1.Cl (centres undefined) ) has MIC equal to 1.56

Per the records, this molecule ( CN1CCN(c2c(F)cc3c(=O)c(C(=O)O)c4n5c3c2C(=O)CC5CS4)CC1.Cl (centres undefined) ) has MIC equal to 0.39

Per the records, this molecule ( CN1CCN(c2c(F)cc3c(=O)c(C(=O)O)c4n5c3c2OCC5CS4)CC1.Cl (centres undefined) ) has MIC equal to 0.025
